# system: CDK4/CycD3 (Homo sapiens, UniProt P11802)
# Sequence (P11802 whole entry): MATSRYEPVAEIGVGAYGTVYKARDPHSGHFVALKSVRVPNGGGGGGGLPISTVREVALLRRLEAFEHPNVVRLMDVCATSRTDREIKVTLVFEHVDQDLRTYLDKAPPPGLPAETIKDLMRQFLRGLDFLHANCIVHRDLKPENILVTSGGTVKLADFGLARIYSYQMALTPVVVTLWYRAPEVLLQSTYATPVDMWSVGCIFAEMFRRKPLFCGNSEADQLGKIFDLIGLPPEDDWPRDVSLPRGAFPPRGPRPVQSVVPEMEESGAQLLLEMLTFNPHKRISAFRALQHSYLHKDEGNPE
# Sequence (P30281 whole entry partner): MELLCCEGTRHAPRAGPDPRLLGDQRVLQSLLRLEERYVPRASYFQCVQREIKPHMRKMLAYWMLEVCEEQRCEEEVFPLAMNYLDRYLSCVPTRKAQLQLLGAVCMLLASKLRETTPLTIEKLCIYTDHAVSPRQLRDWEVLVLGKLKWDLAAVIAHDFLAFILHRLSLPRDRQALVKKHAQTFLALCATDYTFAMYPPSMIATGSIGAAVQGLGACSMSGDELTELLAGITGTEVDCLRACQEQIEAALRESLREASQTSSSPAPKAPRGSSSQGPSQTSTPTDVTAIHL
# experiment-summary: IC50 by mobility shift assay
# Format: biochemical
# study-conditions: Table 3, CDK4, mobility shift assay; read-out: IC50 (μM), Kinase CDK4/CycD3
reported-metric: IC50 (µM)
Use µM as the unit, but write only the number.

Example entries and their recorded answers appear below.
C[C@H]1CC[C@H]2C(C)(C)CCC[C@]2(C)/C1=C/c1cc(O)c(O)c(C=O)c1O [SD-2, 8-epi-siphonodictyal B] :: 22.4
C[C@@H]1CC[C@H]2C(C)(C)CCC[C@]2(C)/C1=C/c1cc(O)c(O)c(C=O)c1O [SD-1, siphonodictyal B] :: 32.9
C[C@@H]1CC[C@H]2C(C)(C)CCC[C@]2(C)c2c1oc1c(C=O)c3c(cc21)OCO3 [LG-3] :: 47.8
C[C@@H]1CC[C@H]2C(C)(C)CCC[C@]2(C)c2c1oc1c(C=O)c(O)c(O)cc21 [LG-1, liphagal] :: 19.9

In the following, a different molecule is considered.
Item C[C@H]1CC[C@H]2C(C)(C)CCC[C@]2(C)c2c1oc1c(C=O)c(O)c(O)cc21 [LG-2] with CDK4/CycD3 (Homo sapiens, UniProt P11802) - IC50?
125

====

# IC50 annotations
# system: CDK6 (Homo sapiens, UniProt Q00534)
# Sequence (Q00534 whole entry): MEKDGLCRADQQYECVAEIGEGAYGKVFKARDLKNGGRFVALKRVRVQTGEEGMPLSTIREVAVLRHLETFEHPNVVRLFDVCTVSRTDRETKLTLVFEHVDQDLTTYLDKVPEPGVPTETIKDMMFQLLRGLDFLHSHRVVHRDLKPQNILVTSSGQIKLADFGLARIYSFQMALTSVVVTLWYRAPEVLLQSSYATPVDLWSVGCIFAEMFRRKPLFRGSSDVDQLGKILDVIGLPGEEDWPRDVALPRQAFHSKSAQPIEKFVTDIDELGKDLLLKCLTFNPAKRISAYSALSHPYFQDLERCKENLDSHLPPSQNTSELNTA
# experiment-summary: IC50 by mobility shift assay
# Format: biochemical
# study-conditions: Table 4, inhibitory activity against CDK6, mobility shift assay; read-out: IC50 (μM), Kinase

Example compounds with recorded IC50:
C[C@H]1CC[C@H]2C(C)(C)CCC[C@]2(C)/C1=C/c1cc(O)c(O)c(C=O)c1O [SD-2, 8-epi-siphonodictyal B] :: 25.6 µM
C[C@@H]1CC[C@H]2C(C)(C)CCC[C@]2(C)/C1=C/c1cc(O)c(O)c(C=O)c1O :: 69.1 µM
C[C@@H]1CC[C@H]2C(C)(C)CCC[C@]2(C)c2c1oc1c(C=O)c3c(cc21)OCO3 :: 64.1 µM

Consider the additional compound presented here.
Item `C[C@@H]1CC[C@H]2C(C)(C)CCC[C@]2(C)c2c1oc1c(C=O)c(O)c(O)cc21` has what recorded IC50?
6.78 µM

====

# system: PIK3CA/PIK3R1 (Homo sapiens, UniProt P42336)
# Sequence (P42336 whole entry): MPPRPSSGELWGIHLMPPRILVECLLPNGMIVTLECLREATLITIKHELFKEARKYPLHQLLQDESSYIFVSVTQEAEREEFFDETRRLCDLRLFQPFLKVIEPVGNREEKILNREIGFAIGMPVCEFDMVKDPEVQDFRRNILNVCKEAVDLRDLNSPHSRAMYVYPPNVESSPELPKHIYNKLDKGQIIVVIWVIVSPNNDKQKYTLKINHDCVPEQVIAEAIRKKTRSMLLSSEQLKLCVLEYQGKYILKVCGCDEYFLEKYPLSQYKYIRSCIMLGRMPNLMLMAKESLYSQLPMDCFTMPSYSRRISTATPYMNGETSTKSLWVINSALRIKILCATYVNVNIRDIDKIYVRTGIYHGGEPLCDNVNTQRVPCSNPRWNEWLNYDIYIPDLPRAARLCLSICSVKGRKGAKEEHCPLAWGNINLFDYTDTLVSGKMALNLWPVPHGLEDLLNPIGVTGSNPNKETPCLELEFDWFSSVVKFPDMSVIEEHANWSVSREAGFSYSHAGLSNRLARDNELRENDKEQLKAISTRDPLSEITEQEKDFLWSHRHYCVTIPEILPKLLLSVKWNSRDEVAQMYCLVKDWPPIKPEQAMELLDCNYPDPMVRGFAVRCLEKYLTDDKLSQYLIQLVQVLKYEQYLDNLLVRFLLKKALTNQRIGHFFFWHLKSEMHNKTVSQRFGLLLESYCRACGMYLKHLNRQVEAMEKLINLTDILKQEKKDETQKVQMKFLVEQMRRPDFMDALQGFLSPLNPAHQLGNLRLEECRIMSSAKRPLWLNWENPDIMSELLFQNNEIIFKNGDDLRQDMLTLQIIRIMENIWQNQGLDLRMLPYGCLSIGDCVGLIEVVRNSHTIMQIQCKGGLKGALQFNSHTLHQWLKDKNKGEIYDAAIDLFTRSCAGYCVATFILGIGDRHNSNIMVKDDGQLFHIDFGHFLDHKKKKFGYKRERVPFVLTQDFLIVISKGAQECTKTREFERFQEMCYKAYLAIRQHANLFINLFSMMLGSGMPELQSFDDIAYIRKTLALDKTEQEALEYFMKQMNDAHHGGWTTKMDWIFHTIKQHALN
# Sequence (P27986 whole entry partner): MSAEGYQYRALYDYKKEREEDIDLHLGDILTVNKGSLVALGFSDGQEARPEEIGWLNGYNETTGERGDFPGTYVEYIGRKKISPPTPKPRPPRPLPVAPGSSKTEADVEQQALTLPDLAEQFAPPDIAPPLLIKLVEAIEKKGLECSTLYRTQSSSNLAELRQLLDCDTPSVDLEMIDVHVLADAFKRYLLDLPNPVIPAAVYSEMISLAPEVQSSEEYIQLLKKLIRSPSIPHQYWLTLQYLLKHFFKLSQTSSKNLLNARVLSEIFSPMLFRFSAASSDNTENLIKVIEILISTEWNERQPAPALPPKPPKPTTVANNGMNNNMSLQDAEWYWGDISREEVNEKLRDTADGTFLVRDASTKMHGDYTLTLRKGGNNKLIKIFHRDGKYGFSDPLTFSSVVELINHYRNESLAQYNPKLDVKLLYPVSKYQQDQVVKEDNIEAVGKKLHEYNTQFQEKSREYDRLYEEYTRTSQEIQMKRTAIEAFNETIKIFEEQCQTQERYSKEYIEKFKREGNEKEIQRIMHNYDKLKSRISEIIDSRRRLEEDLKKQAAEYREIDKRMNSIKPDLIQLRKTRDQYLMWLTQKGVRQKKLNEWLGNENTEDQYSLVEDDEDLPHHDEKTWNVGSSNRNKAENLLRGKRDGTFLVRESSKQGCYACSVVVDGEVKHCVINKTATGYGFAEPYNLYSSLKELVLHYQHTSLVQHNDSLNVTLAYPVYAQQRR
# experiment-summary: ADP-Glo Kinase Assay
# study-conditions: FIG. 4
reported-metric: pIC50
For clarity, pIC50 is expressed as the negative log10 of concentration in mol/L.

Given the entry C[C@H]1CC[C@H]2C(C)(C)CCCC2(C)[C@]12C=C1C=C(O)C(=O)C(C=O)=C1O2 (stereo partly drawn) [CD-3, 8-epi-corallidictyal B] , what pIC50 was observed with PIK3CA/PIK3R1 (Homo sapiens, UniProt P42336)?
5.09
